Below: a set of entries, each annotated with reported pKd.
Target: XIAP-BIR3 (Homo sapiens)
Construct: 40 nM of XIAP-BIR3 for 15 min at RT
Sequence (P98170 241-356 limits assumed): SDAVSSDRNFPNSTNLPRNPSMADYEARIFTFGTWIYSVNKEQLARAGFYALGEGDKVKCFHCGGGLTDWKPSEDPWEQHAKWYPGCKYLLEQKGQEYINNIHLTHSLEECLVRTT
Assay: XIAP BIR-3 fluorescence polarization binding assay
Conditions: 5 nM AbuRPF-K(5-Fam)-NH2, 40 nM XIAP-BIR3, 15 min RT, pH 7.5; read-out: KD Range
pKd: −log10 of the molar value.

CN[C@@H](C)C(=O)N[C@H](C(=O)N1CCC[C@H]1Cc1c(-c2ccc(-c3c(C[C@@H]4CCCN4C(=O)[C@@H](NC(=O)[C@H](C)NC)C(C)C)c4ccc(F)cc4n3CCOC(C)=O)cc2)[nH]c2cc(F)ccc12)C(C)C [Entry 64] :: > 7.00

Let's switch to this molecule now.
Please report pKd for the following molecule: CN[C@@H](C)C(=O)N[C@H](C(=O)N1C[C@@H](O)C[C@H]1Cc1c(-c2ccc(-c3[nH]c4ccc(F)cc4c3C[C@@H]3C[C@H](O)CN3C(=O)[C@@H](NC(=O)[C@H](C)NC)C(C)(C)C)cc2)[nH]c2ccc(F)cc12)C(C)(C)C [Entry 41] > 7.00
